tested on: 2Sb-muMax20 (muMax20 with two 1,3-bis(methyl)benzene Cys staples, A13C/A17C and Q88C/A92C, C-terminal Lys); experiment: PBM 8-mer E-score (E-score (rank enrichment, -0.5 to 0.5)); higher = stronger preferential binding
The full ranking holds about 33,000 sequences; the median of “E-score (rank enrichment, -0.5 to 0.5)” is about -0.0028, and the highest 2% start at about 0.23. The sample holds the highest values, similar sequences and a random draw of the others, so the mix is not that of the screen.
Tag: class 1 if measured PBM 8-mer E-score is not below 0.1, class 0 if it is.

Monomer sequence: AAGTGCCC
Category label: class 0
--
Monomer sequence: ATATATCA
Category label: class 1
--
Monomer sequence: AATATGAC
Category label: class 1
--
Monomer sequence: GTATATAA
Category label: class 1
--
Monomer sequence: GGAATTAA
Category label: class 1
--
Monomer sequence: CTAATTAC
Category label: class 1
--
Monomer sequence: TACATAAA
Category label: class 1
--
Monomer sequence: CGCCGGAG
Category label: class 0
--
Monomer sequence: ACATTGAT
Category label: class 1
--
Monomer sequence: ATGCTTCG
Category label: class 0
--
Monomer sequence: TTAATTAA
Category label: class 1
--
Monomer sequence: CGAATTAA
Category label: class 0
--
Monomer sequence: AGGCAGGC
Category label: class 0
--
Monomer sequence: ACACCTAT
Category label: class 0
--
Monomer sequence: TACACATA
Category label: class 1
--
Monomer sequence: GCGACATA
Category label: class 0
--
Monomer sequence: CCTTGTTC
Category label: class 0
--
Monomer sequence: CCTTACTA
Category label: class 0
--
Monomer sequence: GCGACGCC
Category label: class 0
--
Monomer sequence: AACATAAA
Category label: class 1
--
Monomer sequence: CCTTGTTA
Category label: class 1
--
Monomer sequence: GGAATGCC
Category label: class 0
--
Monomer sequence: GTCGTTAA
Category label: class 0
--
Monomer sequence: CTAATTAA
Category label: class 0
--
Monomer sequence: GTATATAC
Category label: class 1
--
Monomer sequence: ATCTCCAA
Category label: class 1
--
Monomer sequence: GCACCAGA
Category label: class 0
--
Monomer sequence: ACTTACTC
Category label: class 0
--
Monomer sequence: AACATACG
Category label: class 1
--
Monomer sequence: GTAATTAC
Category label: class 1
--
Monomer sequence: GACACATA
Category label: class 0
--
Monomer sequence: CACATAAA
Category label: class 0
--
Monomer sequence: GTCGCGGA
Category label: class 0

----------
system: 2Sb-muMax20 (muMax20 with two 1,3-bis(methyl)benzene Cys staples, A13C/A17C and Q88C/A92C, C-terminal Lys); assay: PBM 8-mer E-score (E-score (rank enrichment, -0.5 to 0.5)); higher = stronger preferential binding
In all, about 33,000 sequences were measured (“E-score (rank enrichment, -0.5 to 0.5)”: median about -0.0028, highest 2% from about 0.23 on). This is one part of a sample in which the highest values are shown more often than they occur.
Reported PBM 8-mer E-score values for a set of sequences
Measured parameter: PBM 8-mer E-score

Monomer sequence: AATTAAAT
Readout number: 0.235
--
Monomer sequence: GGTAATTA
Readout number: 0.24
--
Monomer sequence: AACCATTG
Readout number: -0.163
--
Monomer sequence: AAATATGT
Readout number: 0.148
--
Monomer sequence: ATACAGTC
Readout number: -0.00634
--
Monomer sequence: TCCCTTCA
Readout number: 0.0279
--
Monomer sequence: AATTGAAA
Readout number: 0.272
--
Monomer sequence: ATAGGTAA
Readout number: 0.0236
--
Monomer sequence: AATCCGCA
Readout number: -0.0479
--
Monomer sequence: GGAATGCA
Readout number: 0.038
--
Monomer sequence: ACCCATTA
Readout number: 0.161
--
Monomer sequence: CCCATCAA
Readout number: 0.12
--
Monomer sequence: AGTGCTGC
Readout number: -0.166
--
Monomer sequence: TGCCCGAA
Readout number: -0.0214
--
Monomer sequence: GCATCTGA
Readout number: -0.135
--
Monomer sequence: ACTTCAGA
Readout number: -0.161
--
Monomer sequence: AATTGAAC
Readout number: -0.0329
--
Monomer sequence: ATCCCGAG
Readout number: -0.0644
--
Monomer sequence: AAATATTA
Readout number: 0.243
--
Monomer sequence: CCAGACGC
Readout number: -0.135
--
Monomer sequence: AATCATGA
Readout number: 0.136
--
Monomer sequence: ACCCTTGA
Readout number: -0.145
--
Monomer sequence: GAATATTA
Readout number: 0.238
--
Monomer sequence: CTGGCGCA
Readout number: -0.166
--
Monomer sequence: GATTGCGA
Readout number: -0.103
--
Monomer sequence: CAAACTGG
Readout number: -0.0119
--
Monomer sequence: ATTCAGAG
Readout number: -0.21
--
Monomer sequence: CACCTATA
Readout number: 0.232
--
Monomer sequence: CCCACGCC
Readout number: -0.189
--
Monomer sequence: CCTAATTA
Readout number: 0.0703
--
Monomer sequence: CAAGTAAA
Readout number: 0.114
--
Monomer sequence: ACTAATTA
Readout number: 0.226
--
Monomer sequence: AATTGAAT
Readout number: 0.229
--
Monomer sequence: TAATATGA
Readout number: 0.168
--
Monomer sequence: ACTCCGAC
Readout number: -0.182
--
Monomer sequence: CAGTTCAG
Readout number: 0.0182
--
Monomer sequence: AACCGATA
Readout number: -0.0929
--
Monomer sequence: AATTAAAG
Readout number: 0.133
--
Monomer sequence: CTAAAGCA
Readout number: 0.097
--
Monomer sequence: CCCCATAA
Readout number: 0.301
--
Monomer sequence: CACCATTA
Readout number: -0.044
--
Monomer sequence: ATGGCCGA
Readout number: -0.0989
--
Monomer sequence: ACGCACAG
Readout number: -0.146
--
Monomer sequence: AAAGTTAT
Readout number: 0.0271
--
Monomer sequence: AAATATGA
Readout number: 0.247
--
Monomer sequence: CCCCTTGA
Readout number: 0.27
--
Monomer sequence: TACCTATA
Readout number: 0.116
--
Monomer sequence: ACAAATTA
Readout number: 0.0394
--
Monomer sequence: TATAGGAA
Readout number: 0.255
--
Monomer sequence: CTCCGTCC
Readout number: -0.114
--
Monomer sequence: ACTTCATA
Readout number: 0.0718
--
Monomer sequence: GAGTTCCA
Readout number: -0.117
--
Monomer sequence: CAAAATAG
Readout number: 0.0583
--
Monomer sequence: GCCCTTGA
Readout number: -0.0328
--
Monomer sequence: AGTGCGAC
Readout number: -0.0265
--
Monomer sequence: ATAAAGCG
Readout number: 0.0637
--
Monomer sequence: AACCATTA
Readout number: 0.276
--
Monomer sequence: ACGCAACC
Readout number: -0.0577
--
Monomer sequence: AAGGTATT
Readout number: 0.0792
--
Monomer sequence: CGTAATTA
Readout number: 0.202
--
Monomer sequence: GGGAGACA
Readout number: 0.115
--
Monomer sequence: ATTATACG
Readout number: 0.0799
--
Monomer sequence: ACCTGTGA
Readout number: -0.138
--
Monomer sequence: ACGTGAGG
Readout number: 0.0924
--
Monomer sequence: ACTTAAGT
Readout number: 0.246
--
Monomer sequence: GGACAAAA
Readout number: 0.0253
--
Monomer sequence: ATGGCGCA
Readout number: 0.239
--
Monomer sequence: CCCCTTCC
Readout number: -0.0525
--
Monomer sequence: ATCAGCTA
Readout number: 0.00813
--
Monomer sequence: GTACCTAA
Readout number: 0.015
--
Monomer sequence: GATTACCC
Readout number: 0.093
--
Monomer sequence: TATCATGA
Readout number: 0.278
--
Monomer sequence: GCCCATAA
Readout number: 0.0149
--
Monomer sequence: ATTATAAC
Readout number: 0.306
--
Monomer sequence: CTCGTGCA
Readout number: 0.0182
--
Monomer sequence: AGAAGATG
Readout number: -0.0449
--
Monomer sequence: ATTATACA
Readout number: 0.0477
--
Monomer sequence: AAATATTC
Readout number: 0.124
--
Monomer sequence: ACCCATAA
Readout number: 0.25
--
Monomer sequence: AATTAAAC
Readout number: 0.19
--
Monomer sequence: GAATATTC
Readout number: 0.166
--
Monomer sequence: CATAGACA
Readout number: 0.0657
--
Monomer sequence: CCACATCC
Readout number: 0.00851

Values compiled from the supplement of paper PMC12636033.
